- Study system: REFACTO® factor VIII-like polypeptide (amino acids 1-743 and 1638 through 2332 of human factor VIII) (human) (UniProt P00451)
- Sequence (P00451 20-762, chain 1 of 2): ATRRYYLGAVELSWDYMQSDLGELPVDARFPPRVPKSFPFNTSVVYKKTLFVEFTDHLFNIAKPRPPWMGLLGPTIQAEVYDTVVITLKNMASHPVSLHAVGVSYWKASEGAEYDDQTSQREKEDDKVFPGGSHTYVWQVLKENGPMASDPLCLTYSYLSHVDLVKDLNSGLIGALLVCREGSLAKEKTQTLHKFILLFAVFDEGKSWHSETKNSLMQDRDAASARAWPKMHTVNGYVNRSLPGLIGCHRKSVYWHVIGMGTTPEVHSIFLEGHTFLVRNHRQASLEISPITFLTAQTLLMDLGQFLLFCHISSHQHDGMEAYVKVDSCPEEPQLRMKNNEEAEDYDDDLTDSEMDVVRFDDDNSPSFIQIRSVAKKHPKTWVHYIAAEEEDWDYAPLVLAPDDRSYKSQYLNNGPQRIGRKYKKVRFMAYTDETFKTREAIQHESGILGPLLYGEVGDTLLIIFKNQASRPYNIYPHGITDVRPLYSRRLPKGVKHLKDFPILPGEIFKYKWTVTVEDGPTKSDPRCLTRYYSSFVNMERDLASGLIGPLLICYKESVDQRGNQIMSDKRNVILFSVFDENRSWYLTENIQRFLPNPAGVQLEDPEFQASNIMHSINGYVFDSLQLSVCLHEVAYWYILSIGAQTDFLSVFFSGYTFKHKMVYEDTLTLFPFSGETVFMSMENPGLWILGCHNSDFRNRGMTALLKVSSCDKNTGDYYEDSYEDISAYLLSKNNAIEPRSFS
- Sequence (P00451 1657-2351, chain 2 of 2): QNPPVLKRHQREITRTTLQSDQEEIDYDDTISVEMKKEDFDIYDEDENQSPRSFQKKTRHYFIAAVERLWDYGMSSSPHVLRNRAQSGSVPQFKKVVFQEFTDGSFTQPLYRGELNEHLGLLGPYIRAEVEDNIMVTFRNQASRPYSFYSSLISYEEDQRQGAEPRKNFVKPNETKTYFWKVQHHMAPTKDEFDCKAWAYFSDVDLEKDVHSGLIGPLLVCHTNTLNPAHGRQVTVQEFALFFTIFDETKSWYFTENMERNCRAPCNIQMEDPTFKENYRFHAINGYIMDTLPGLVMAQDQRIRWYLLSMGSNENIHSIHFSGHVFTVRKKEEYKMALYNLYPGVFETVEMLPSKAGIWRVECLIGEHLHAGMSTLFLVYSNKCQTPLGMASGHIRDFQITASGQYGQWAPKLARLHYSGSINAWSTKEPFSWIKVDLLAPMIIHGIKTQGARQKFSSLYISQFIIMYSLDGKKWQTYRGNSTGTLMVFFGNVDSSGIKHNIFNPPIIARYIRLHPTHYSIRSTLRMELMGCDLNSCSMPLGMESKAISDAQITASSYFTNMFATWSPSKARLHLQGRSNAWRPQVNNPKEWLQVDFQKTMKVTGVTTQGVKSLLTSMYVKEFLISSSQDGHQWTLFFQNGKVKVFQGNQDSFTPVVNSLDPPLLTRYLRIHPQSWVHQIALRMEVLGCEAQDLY
- Assay explanation: phage ELISA, anti-M13-HRP
Measured ELISA signal values are reported for all entries that follow.
Report field: quantity (unit follows the number).

1) FCHVFPFLHCD [TN9 isolate 11 (phage-displayed peptide, SEQ ID NO: 32)] = 0.2 OD630
2) RLCSWVSPCSA [TN7 isolate C5/G10 (phage-displayed peptide, SEQ ID NO: 9)] = 0.5 OD630

The record that follows has no ELISA signal shown yet.
Consider the binder FCWVFPFNHCD [TN9 isolate 02 (phage-displayed peptide, SEQ ID NO: 27)] . State its measured ELISA signal.
0.4 OD630
